molecular target: Monoamine transporters; Norepinephrine & dopamine (Homo sapiens) (UniProt Q01959+P23975); test: Selectivity ratio of NET/DAT; type: protein assay
Sequence (P23975 whole entry, looked up): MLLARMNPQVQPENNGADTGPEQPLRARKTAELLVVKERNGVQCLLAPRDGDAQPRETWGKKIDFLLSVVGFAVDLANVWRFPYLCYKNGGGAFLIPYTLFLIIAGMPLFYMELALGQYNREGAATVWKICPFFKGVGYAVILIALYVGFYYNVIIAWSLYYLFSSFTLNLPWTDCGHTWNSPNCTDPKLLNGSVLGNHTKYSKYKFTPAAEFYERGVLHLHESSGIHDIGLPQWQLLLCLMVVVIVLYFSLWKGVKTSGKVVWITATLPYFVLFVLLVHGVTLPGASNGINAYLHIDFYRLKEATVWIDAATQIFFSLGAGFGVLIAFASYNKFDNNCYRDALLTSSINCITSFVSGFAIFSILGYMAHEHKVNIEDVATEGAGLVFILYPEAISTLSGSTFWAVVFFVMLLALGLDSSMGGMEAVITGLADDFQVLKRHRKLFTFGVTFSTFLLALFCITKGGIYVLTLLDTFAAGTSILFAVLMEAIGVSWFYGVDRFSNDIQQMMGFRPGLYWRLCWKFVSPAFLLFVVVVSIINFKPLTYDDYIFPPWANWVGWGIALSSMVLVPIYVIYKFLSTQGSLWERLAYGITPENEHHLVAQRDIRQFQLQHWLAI
Sequence (Q01959 whole entry, looked up): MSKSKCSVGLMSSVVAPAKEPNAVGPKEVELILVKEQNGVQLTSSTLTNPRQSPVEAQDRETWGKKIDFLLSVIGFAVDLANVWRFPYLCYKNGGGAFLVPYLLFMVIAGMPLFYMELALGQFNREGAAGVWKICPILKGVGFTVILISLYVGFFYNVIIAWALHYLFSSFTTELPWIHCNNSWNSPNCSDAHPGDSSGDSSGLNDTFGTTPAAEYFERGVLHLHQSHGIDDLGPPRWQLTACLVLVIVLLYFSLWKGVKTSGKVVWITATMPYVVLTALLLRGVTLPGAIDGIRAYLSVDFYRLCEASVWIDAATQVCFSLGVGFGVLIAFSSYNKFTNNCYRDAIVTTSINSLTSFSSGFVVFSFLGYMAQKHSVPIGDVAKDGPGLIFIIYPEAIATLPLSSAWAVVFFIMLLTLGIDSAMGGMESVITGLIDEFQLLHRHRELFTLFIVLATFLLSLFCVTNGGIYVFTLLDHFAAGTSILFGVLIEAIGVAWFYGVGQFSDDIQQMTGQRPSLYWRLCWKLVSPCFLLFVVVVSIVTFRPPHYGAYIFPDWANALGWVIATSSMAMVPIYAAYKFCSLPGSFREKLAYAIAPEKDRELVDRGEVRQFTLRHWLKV
Provide the reported Selectivity ratio of each item.
Numbers only.

Study these solved cases before continuing.
CN(CCOC(c1ccccc1)c1ccccc1)C1CCN(CCCc2ccccc2)CC1 | 1
c1ccc(CCCNCC2CCCN(CCOC(c3ccccc3)c3ccccc3)C2)cc1 (stereo not given) | 0.6
Fc1ccc(CCN2CCCC(CNCCOC(c3ccccc3)c3ccccc3)C2)cc1 (stereo not given) | 1.5

Report Selectivity ratio for each item below.
1. Fc1ccc(CCNCC2CCCN(CCOC(c3ccccc3)c3ccccc3)C2)cc1 (stereo not given)
2. Fc1ccc(CCNC2CCN(CCOC(c3ccccc3)c3ccccc3)CC2)cc1

Ans.
[2.1, 0.7]

---

molecular target: Monoamine transporters; Norepinephrine & dopamine (Homo sapiens) (UniProt Q01959+P23975); assay: Selectivity ratio of NET/DAT; assay type: protein assay
experimentalEndpoint: Selectivity ratio
Give bare numbers.

c1ccc(CCCNC2CCN(CCOC(c3ccccc3)c3ccccc3)CC2)cc1 | 0.8
c1ccc(CN2CCC(NCCOC(c3ccccc3)c3ccccc3)CC2)cc1 | 2.1
CN(CCCc1ccccc1)C1CCN(CCOC(c2ccccc2)c2ccccc2)CC1 | 0.1

Report Selectivity ratio for each item below.
1. CN(CCc1ccc(F)cc1)CC1CCCN(CCOC(c2ccccc2)c2ccccc2)C1 (stereo not given)
2. c1ccc(CCCN2CCCC(CNCCOC(c3ccccc3)c3ccccc3)C2)cc1 (stereo not given)

Ans.
1. 1.3
2. 1.3

---

Provide the reported pIC50 of each item.
molecular target: Sodium-dependent noradrenaline transporter (Homo sapiens, UniProt P23975); assay: Inhibition of [3H]NE reuptake by human norepinephrine transporter expressed in HEK293 cells
Sequence (P23975 whole entry): as the sequence (P23975 whole entry, looked up) above
Give bare numbers, as −log10 of the molar value.

Study these solved cases before continuing.
CN(CCOC(c1ccccc1)c1ccccc1)C1CCN(CCCc2ccccc2)CC1 | 6.70
c1ccc(CCCNCC2CCCN(CCOC(c3ccccc3)c3ccccc3)C2)cc1 (stereo unspecified) | 7.32
Fc1ccc(CCNCC2CCCN(CCOC(c3ccccc3)c3ccccc3)C2)cc1 (stereo unspecified) | 6.72

Report pIC50 for each item below.
1. c1ccc(CCCN2CCCC(CNCCOC(c3ccccc3)c3ccccc3)C2)cc1 (stereo unspecified)
2. c1ccc(CCCN2CCN(CCOC(c3ccccc3)c3ccccc3)CC2)cc1
3. Fc1ccc(CCNC2CCN(CCOC(c3ccccc3)c3ccccc3)CC2)cc1

Ans.
[7.01, 6.78, 6.77]

Report pIC50 for each item below.
1. c1ccc(CN2CCC(NCCOC(c3ccccc3)c3ccccc3)CC2)cc1
2. CN(CCc1ccc(F)cc1)CC1CCCN(CCOC(c2ccccc2)c2ccccc2)C1 (stereo unspecified)
3. Fc1ccc(CCN2CCCC(CNCCOC(c3ccccc3)c3ccccc3)C2)cc1 (stereo unspecified)
4. c1ccc(CCCNC2CCN(CCOC(c3ccccc3)c3ccccc3)CC2)cc1
5. CN(CCCc1ccccc1)C1CCN(CCOC(c2ccccc2)c2ccccc2)CC1

Ans.
1: 7.06; 2: 6.46; 3: 6.70; 4: 6.64; 5: 6.74

---

assay: Discrimination ratio of [3H]5-HT reuptake/SERT binding; assay type: functional
experimentalEndpoint: Discrimination ratio
Answers are plain numbers.

Study these solved cases before continuing.
Fc1ccc(CCN2CCCC(CNCCOC(c3ccccc3)c3ccccc3)C2)cc1 (stereo not given) | 3.3
c1ccc(CN2CCC(NCCOC(c3ccccc3)c3ccccc3)CC2)cc1 | 0.9
CN(CCCc1ccccc1)C1CCN(CCOC(c2ccccc2)c2ccccc2)CC1 | 3.6
CN(CCOC(c1ccccc1)c1ccccc1)C1CCN(CCCc2ccccc2)CC1 | 0.9

Moving on to the next compound.
Qu. Find the recorded Discrimination ratio belonging to c1ccc(CCCNCC2CCCN(CCOC(c3ccccc3)c3ccccc3)C2)cc1 (stereo not given) and report it.
Ans. 2.5
